targetSystem: CDK2/Cyclin E1 (Homo sapiens, UniProt P24941)
Construct: purchased 14-475
testDescription: Caliper Assay (LabChip EZ Reader mobility shift assay), inhibition of CDK2/Cyclin E1 activity
Type: biochemical
conditionLabel: 2.5 nM CDK2/Cyclin E1(14-475), 100 μM ATP, 30 min preincubation; read-out: Caliper Assay (CDK2/CCNE1): IC50
Listed below: IC50 values for each entry.

# count of solved cases: 5
compound	IC50
Cc1ccc(CNC(=O)c2coc(C3CN(C(=O)c4cnn(Cc5ccccc5)c4)CC34CN(C(=O)[C@H]3CC3(C)C)C4)n2)nn1 (stereo partly drawn) [I-10]	> 10000 nM
CC1(C(=O)N2CC3(C2)CN(c2ncnc4ncsc24)CC3c2nnc(C(F)(F)c3ccc(Cl)c(Cl)c3)o2)CC1(F)F (stereo not drawn) [I-174]	1000 to 10000 nM
CC1(C)C[C@@H]1C(=O)N1CC2(CN(C(=O)c3cncs3)CC2c2cn(Cc3cccc(C(F)(F)F)c3)nn2)C1 (stereo partly drawn) [I-195]	1000 to 10000 nM
CC1(C)C[C@@H]1C(=O)N1CC2(CN(C(=O)c3cncs3)CC2c2nnc(C(F)(F)c3ccc(Cl)cc3)o2)C1 (stereo partly drawn) [I-65]	1000 to 10000 nM
CCO[C@H]1C[C@@H](c2nc(C3CN(C(=O)c4cnn(Cc5ccccc5)c4)CC34CN(C(=O)[C@H]3CC3(C)C)C4)no2)C1 (stereo partly drawn) [I-3]	1000 to 10000 nM

Kindly note the recorded IC50 for CC1(C)C[C@@H]1C(=O)N1CC2(CN(C(=O)c3cncs3)CC2c2nnc(C(F)(F)c3cccc4ccccc34)o2)C1 (stereo partly drawn) [I-73] , which is 100 to 1000 nM

Kindly note the recorded IC50 for CC(C)(C#N)C(=O)N1CC2(CN(Cc3cnccn3)CC2c2nnc(C(F)(F)c3ccc(Cl)c(Cl)c3)o2)C1 (stereo not drawn) [I-146] , which is > 100000 nM

Kindly note the recorded IC50 for O=C(c1[nH]ncc1C(F)(F)F)N1CC(c2nnc(C(F)(F)c3ccc(Cl)c(Cl)c3)o2)C2(C1)CN(C(=O)[C@H]1CC1(F)F)C2 (stereo partly drawn) [I-163] , which is > 10000 nM

Kindly note the recorded IC50 for CC(c1cc[nH]n1)c1nc(C2CN(C(=O)c3cncs3)CC23CN(C(=O)[C@H]2CC2(C)C)C3)no1 (stereo partly drawn) [I-77] , which is 1000 to 10000 nM
